From: ChEMBL document CHEMBL1153374

Tested on: Neutrophil
MEASUREMENT DESCRIPTION: Inhibition of fMLP/cytochalasin B-stimulated super oxide anion generation in Sprague-Dawley rat neutrophils
Type: functional, cell-based
ASSAY ENDPOINT: inhibition

Reported inhibition of c1ccc2c(c1)[I+]c1ccccc1-2 [DIPHENYLENEIODONIUM CHLORIDE] : Dose-dependent effect

Reported inhibition of "C=C(C)[C@@H]1CC[C@]2(C)[C@H](C(=O)C=C3[C@@H]4C[C@@](C)(C(=O)NC(C)C)CC[C@]4(C)CC[C@]32C)[C@@]1(C)CCC(=O)O" : Dose-dependent effect

Reported inhibition of "C=C(C)[C@@H]1CC[C@]2(C)[C@H](C(=O)C=C3[C@@H]4C[C@@](C)(C(=O)O)CC[C@]4(C)CC[C@]32C)[C@@]1(C)CCC(=O)O" : Dose-dependent effect

Reported inhibition of "CC1(C)C(=O)CC[C@]2(C)[C@H]3C(=O)C=C4[C@@H]5C[C@@](C)(C(=O)O)CC[C@]5(C)CC[C@@]4(C)[C@]3(C)CC[C@@H]12" : Dose-dependent effect

====

System: Neutrophil
MEASUREMENT DESCRIPTION: Inhibition of fMLP/cytochalasin B-stimulated super oxide anion generation in Sprague-Dawley rat neutrophils
Format: functional, cell-based
For each of the compounds below, state its IC50.
In your response, the unit should come after the numeric value.

Reported IC50 of "C=C(C)[C@@H]1CC[C@]2(C)[C@H](C(=O)C=C3[C@@H]4C[C@@](C)(C(=O)O)CC[C@]4(C)CC[C@]32C)[C@@]1(C)CCC(=O)O" : 7 µM

Reported IC50 of "CC1(C)C(=O)CC[C@]2(C)[C@H]3C(=O)C=C4[C@@H]5C[C@@](C)(C(=O)O)CC[C@]5(C)CC[C@@]4(C)[C@]3(C)CC[C@@H]12" : 10.3 µM

Reported IC50 of "C=C(C)[C@@H]1CC[C@]2(C)[C@H](C(=O)C=C3[C@@H]4C[C@@](C)(C(=O)NC(C)C)CC[C@]4(C)CC[C@]32C)[C@@]1(C)CCC(=O)O" : 9.8 µM

Reported IC50 of c1ccc2c(c1)[I+]c1ccccc1-2 [DIPHENYLENEIODONIUM CHLORIDE] : 2.7 µM

====

Test system: RAW264.7
MEASUREMENT DESCRIPTION: Inhibition of LPS-induced TNFalpha release in mouse RAW264.7 cells pretreated 1 hr before LPS challenge by enzyme immunoassay
Assay type: functional, cell-based
ASSAY ENDPOINT: inhibition

Known results for compounds:
Reported inhibition of O=c1c(-c2ccc(O)cc2)coc2cc(O)cc(O)c12 [GENISTEIN] : Dose-dependent effect

Reported inhibition of CC1(C)[C@@H](O)CC[C@]2(C)[C@H]3C(=O)C=C4[C@@H]5C[C@@](C)(C(=O)O)CC[C@]5(C)CC[C@@]4(C)[C@]3(C)CC[C@@H]12 [ENOXOLONE] : Dose-dependent effect

Reported inhibition of "C=C(C)[C@@H]1CC[C@]2(C)[C@H](C(=O)C=C3[C@@H]4C[C@@](C)(C(=O)Nc5ccccc5)CC[C@]4(C)CC[C@]32C)[C@@]1(C)CCC(=O)OC" : Dose-dependent effect

Reported inhibition of "C=C(C)[C@@H]1CC[C@]2(C)[C@H](C(=O)C=C3[C@@H]4C[C@@](C)(C(=O)OC)CC[C@]4(C)CC[C@]32C)[C@@]1(C)CCC(=O)O" : Dose-dependent effect

Reported inhibition of "C=C(C)[C@@H]1CC[C@]2(C)[C@H](C(=O)C=C3[C@@H]4C[C@@](C)(C(=O)OCc5ccccc5)CC[C@]4(C)CC[C@]32C)[C@@]1(C)CCC(=O)OC" : Dose-dependent effect

Reported inhibition of "C=C(C)[C@@H]1CC[C@]2(C)[C@H](C(=O)C=C3[C@@H]4C[C@@](C)(C(=O)OCc5ccccc5)CC[C@]4(C)CC[C@]32C)[C@@]1(C)CCC(=O)O" : Dose-dependent effect

Below: the item to evaluate.
Reported inhibition of "C=C(C)[C@@H]1CC[C@]2(C)[C@H](C(=O)C=C3[C@@H]4C[C@@](C)(C(=O)Nc5ccccc5)CC[C@]4(C)CC[C@]32C)[C@@]1(C)CCC(=O)O" : Dose-dependent effect
